study system: Pancreatic CCK (Rattus norvegicus)
Construct: from tissue; host or cells: pancreas (rat, inferred from the cited method)
Sequence (P30551 1-444): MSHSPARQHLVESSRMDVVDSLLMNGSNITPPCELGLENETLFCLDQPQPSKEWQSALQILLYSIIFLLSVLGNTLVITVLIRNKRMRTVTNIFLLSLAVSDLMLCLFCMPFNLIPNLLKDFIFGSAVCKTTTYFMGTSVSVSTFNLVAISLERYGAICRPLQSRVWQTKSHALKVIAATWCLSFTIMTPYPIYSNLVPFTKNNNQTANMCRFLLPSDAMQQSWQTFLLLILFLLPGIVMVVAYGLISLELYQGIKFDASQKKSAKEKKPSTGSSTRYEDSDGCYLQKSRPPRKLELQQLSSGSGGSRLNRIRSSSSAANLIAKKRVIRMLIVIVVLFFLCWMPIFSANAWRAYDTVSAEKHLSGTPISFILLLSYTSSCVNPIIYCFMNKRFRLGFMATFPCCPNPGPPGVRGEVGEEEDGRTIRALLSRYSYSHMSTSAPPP
assay: Pancreatic CCK inhibition (assay of European Patent Application No. 0,116,150)
Format: binding
condition info: pancreas CCK inhibition, European Patent Application assay; leucine analogs
pIC50: −log10 of the molar value.
endpoint label: pIC50

Here is how some compounds turned out for pIC50.
Challenge: For the compound shown here, CSCCC1NC2N(C1=O)c1ccccc1C2(O)CC1NC(=O)c2ccccc2-n2c1nc1ccccc1c2=O (stereo not shown) , give the reported pIC50.
Response given: 5.39

Challenge: Note, next up: CCCC1NC2N(C1=O)c1ccccc1C2(O)CC1NC(=O)c2ccccc2-n2c1nc1ccccc1c2=O (stereo not shown)
Response given: 4.92

Challenge: Continue with C=C(C)CC1NC2N(C1=O)c1ccccc1C2(O)CC1NC(=O)c2ccccc2-n2c1nc1ccccc1c2=O (stereo not shown)
Response given: 5.48

(a) O=C1NC(CC2(O)c3ccccc3N3C(=O)C(C4CCCC4)NC32)c2nc3ccccc3c(=O)n2-c2ccccc21 (stereo not shown)
(b) C=CCC1NC2N(C1=O)c1ccccc1C2(O)CC1NC(=O)c2ccccc2-n2c1nc1ccccc1c2=O (stereo not shown)
(c) O=C1NC(CC2(O)c3ccccc3N3C(=O)C(c4ccccc4)NC32)c2nc3ccccc3c(=O)n2-c2ccccc21 (stereo not shown)
(d) O=C1NC(CC2(O)c3ccccc3N3C(=O)C(C4CCCCC4)NC32)c2nc3ccccc3c(=O)n2-c2ccccc21 (stereo not shown)
Challenge: Highest pIC50 first, then in falling order down to the smallest. Lab note: record answer as labels in requested order.
Response given: d, a, b, c

---

study system: Pancreatic CCK (Rattus norvegicus)
Construct: from tissue; host or cells: pancreas (rat, inferred from the cited method)
assay: Pancreatic CCK inhibition (assay of European Patent Application No. 0,116,150)
Format: binding
condition info: pancreas CCK inhibition, European Patent Application assay; leucine analogs
pIC50: −log10 of the molar value.
endpoint label: pIC50

Challenge: Look up pIC50 with Pancreatic CCK (Rattus norvegicus) for this compound: CCSCCC1NC2N(C1=O)c1ccccc1C2(O)CC1NC(=O)c2ccccc2-n2c1nc1ccccc1c2=O (stereo not shown)
Response given: 5.82

(a) CC(CC1NC2N(C1=O)c1ccccc1C2(O)CC1NC(=O)c2ccccc2-n2c1nc1ccccc1c2=O)C(F)(F)F (stereo not shown)
(b) CCC(C)C1NC2N(C1=O)c1ccccc1C2(O)CC1NC(=O)c2ccccc2-n2c1nc1ccccc1c2=O (stereo not shown)
(c) CCCCC1NC2N(C1=O)c1ccccc1C2(O)CC1NC(=O)c2ccccc2-n2c1nc1ccccc1c2=O (stereo not shown)
Challenge: Your job: order these 3 records by pIC50, ascending. The labels, placed in the requested order, form the answer.
Response given: b, c, a
(b: 5.23, c: 5.60, a: 6.00)

---

study system: Pancreatic CCK (Rattus norvegicus, UniProt P30551)
Construct: from tissue; host or cells: pancreas (rat, inferred from the cited method)
assay: Pancreatic CCK inhibition (assay of European Patent Application No. 0,116,150)
Assay type: binding
condition info: pancreatic CCK inhibition, assay of EP 0,116,150
pIC50: −log10 of the molar value.
endpoint label: pIC50

Challenge: Endpoint output: pIC50 of O=C1c2ccccc2-n2c(nc3ccccc3c2=O)C2CC3(O)c4cc(F)ccc4NC3N12 (stereo not shown) . Value?
Response given: 4.52

Challenge: Request: O=C1c2cc(F)ccc2-n2c(nc3ccc(F)cc3c2=O)C2CC3(O)c4cc(F)ccc4NC3N12 (stereo not shown)
Response given: 5.60

(1) O=C1NC(Cc2c[nH]c3ncccc23)c2nc3ccccc3c(=O)n2-c2ccccc21 (stereo not shown)
(2) CC(C)C[C@@H]1NC2N(C1=O)c1ccccc1C2(O)C[C@@H]1NC(=O)c2ccc(F)cc2-n2c1nc1ccccc1c2=O (stereo partly shown)
Challenge: Kindly compare 1 with 2 and tell me which has the lower pIC50 figure. Identify your pick by its label.
Response given: 1
